Data provenance is patent US20060046972A1.

List of AUC values.
- EXPERIMENT DESCRIPTION: Pharmacokinetics in CD-1 mice after intravenous or oral Compound 003
- Type: in vivo
- MEASUREMENT CONTEXT: female, CD-1, mouse, po; plasma metabolite following p.o. 200 mg/kg Compound 003

>  <COMPOUND>
Cc1cn([C@H]2C[C@H](N=[N+]=[N-])[C@@H](CO)O2)c(=O)[nH]c1=O [AZT, 3′-azido-3′-deoxythymidine, reference compound]

>  <MEASURE UNIT>
µM·h

>  <AUC>
386

$$$$
>  <COMPOUND>
Cc1cn(C2CC(N=[N+]=[N-])C(COP(=O)(O)NC(C)C(=O)O)O2)c(=O)[nH]c1=O (centres unmarked)

>  <MEASURE UNIT>
µM·h

>  <AUC>
20.7

$$$$
